biological target: MyD88^TIR (Homo sapiens); construct: MyD88 (residues 148–296); 6xHis; made in house; host or cells: E. coli BL21 (DE3); assay: T‐Surf phage library (P8 and P3) selection against MyD88^TIR, four rounds, NGS read counts; format: binding; settings: P3 library, 4R selection against MyD88, rank before grouping
Sequence (Q99836 148-296): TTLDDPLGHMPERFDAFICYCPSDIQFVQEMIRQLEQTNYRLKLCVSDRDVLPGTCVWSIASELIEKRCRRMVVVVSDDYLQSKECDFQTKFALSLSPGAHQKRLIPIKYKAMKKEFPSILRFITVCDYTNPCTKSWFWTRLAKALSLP
MEASUREMENT KIND: P3_MyD88 Rank (before)

Example sequences with recorded P3_MyD88 Rank (before):
KLDSAMIIKVQRWREA :: 3698
YSFTGQLHRYMVQRGV :: 1434
PENDNGGENAFINHIV :: 2700
DHHLNLPRGKSVKPEILG :: 2057
LVAHRFSKKMKIFATM :: 2315

P: KELVHVWSSKANSRVG
Q: EWIREQLCLALKERLP
Task: Select one: P or Q . Criterion: greater recorded P3_MyD88 Rank (before). Please identify the chosen entry by its label.
Output: P

* * *

target: MAL^TIR (Homo sapiens, UniProt P58753); construct: MAL (residues 79–221); 6xHis; made in house; host or cells: E. coli BL21 (DE3); assay: T‐Surf phage library (P8 and P3) selection against MAL^TIR, four rounds, NGS read counts; format: binding; details: P8 library, selection against MAL, rank before grouping
Sequence (P58753 79-221): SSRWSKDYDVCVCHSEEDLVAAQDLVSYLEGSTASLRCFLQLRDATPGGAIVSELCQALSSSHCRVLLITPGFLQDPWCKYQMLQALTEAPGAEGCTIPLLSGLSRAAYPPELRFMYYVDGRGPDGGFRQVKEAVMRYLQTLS
MEASUREMENT KIND: P8_MAL Rank (before)

RKGDLISDELLIAIEE :: 2300
AFLGEQLHTMVDKPTM :: 1776
AFLWTYLSNLMHQPTF :: 1797
WFLFTFLINLTHPTNF :: 1314
YFLHLLLFSRPETEYN :: 1509
WFYERLVSLILRVTKI :: 1199

A: HQAFWDRLWAKLKAPI
B: WFYESLVSLLTRDTKV
Task: Of A and B , which shows the smaller P8_MAL Rank (before) value? Please identify the chosen entry by its label.
Output: B

P: QFFWDQLKSILGDTRF
Q: WFLLKFRTVLAHVNDV
Task: Select one: P or Q . Criterion: greater recorded P8_MAL Rank (before). Please identify the chosen entry by its label.
Output: P
(P: 2433, Q: 1354)

1: AFFWTQLSTVMGKPTM
2: TFLGHLYNALVQAGI
Task: Of 1 and 2 , which shows the smaller P8_MAL Rank (before) value? Please identify the chosen entry by its label.
Output: 1
(1: 1722, 2: 2582)

P: AFLNTLLKNLTRPPNF
Q: WFFDGLVSLFLGDTKL
Task: Of P and Q , which shows the smaller P8_MAL Rank (before) value? Please identify the chosen entry by its label.
Output: Q
(Q: 1112, P: 1912)

* * *

target: MyD88^TIR (Homo sapiens); construct: MyD88 (residues 148–296); 6xHis; made in house; host or cells: E. coli BL21 (DE3); assay: T‐Surf phage library (P8 and P3) selection against MyD88^TIR, four rounds, NGS read counts; format: binding; conditions: P8_MyD88: rank by count after grouping
MEASUREMENT KIND: Rank (after)

DPQDLGWFYERLLSLF :: 441
EPQDLDWFYERLVSLL :: 94
NDSLFWDRLPYSLNVT :: 468

I: YASSSWALDELWNIF
II: QDLGWFYERLISQILK
III: SAAYGDYWVRQIRMIE
Task: Hey, quick one: sort these by Rank (after), largest value first please. State the ranking by listing the labels in the requested order.
Output: III, I, II
(III: 469, I: 167, II: 108)

P: EIARQLLSEYLNIAVY
Q: WALDGLLKILHARELF
Task: Select one: P or Q . Criterion: greater recorded Rank (after). Please identify the chosen entry by its label.
Output: Q

Taken from paper PMC11714206.
